Quick reference for IC50 among some compounds
- Study system: GSK3B (Homo sapiens)
- Sequence (P49841 whole entry): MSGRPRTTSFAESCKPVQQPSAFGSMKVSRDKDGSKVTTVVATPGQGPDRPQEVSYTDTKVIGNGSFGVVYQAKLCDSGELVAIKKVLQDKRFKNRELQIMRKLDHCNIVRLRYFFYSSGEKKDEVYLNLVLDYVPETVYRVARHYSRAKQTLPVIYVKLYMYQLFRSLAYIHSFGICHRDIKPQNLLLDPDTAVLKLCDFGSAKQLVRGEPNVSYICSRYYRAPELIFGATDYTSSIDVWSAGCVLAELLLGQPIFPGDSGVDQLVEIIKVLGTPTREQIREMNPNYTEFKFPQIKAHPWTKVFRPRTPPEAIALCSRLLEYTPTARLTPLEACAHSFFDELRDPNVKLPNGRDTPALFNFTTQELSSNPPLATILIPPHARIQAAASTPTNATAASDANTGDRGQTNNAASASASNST
- Measurement description: In vitro enzymatic activity assay, GSK3β
- Type: biochemical
- Set-up: Full length human GSK3α or GSK3B expressed as N-terminal GST fusion proteins; GST (N); purchased Carna Biosciences (Japan); host or cells: baculovirus host
- Experimental parameters: 1.0 mM ATP, 1.0 μM peptide substrate, 120 min, 25° C, read-out: Enzyme GSK3β (IC50)
Structures can show the parent of a compound that is named as a salt.
Endpoint: IC50 (nM)

>>> df
                                    compound          study_system  measurement
 0  CCOc1cc(C)c(-n2cnc(N)c(C(=O)Nc3cccc([C@H](N)COC)c3)c2=O)c(Cl)c1 (atropisomer, axis not shown) [Example 72]  GSK3B (Homo sapiens)          468
 1  Cc1cc(C(F)CF)cc(C)c1-n1cnc(N)c(C(=O)Nc2cncc([C@H]3CCCCN3)c2)c1=O (single isomer, unassigned) [Example 113]  GSK3B (Homo sapiens)          133
 2  CCCOc1cc(C)c(-n2cnc(N)c(C(=O)Nc3cncc(C(C)N)c3)c2=O)c(C)c1 (single isomer, unassigned) [Example 126]  GSK3B (Homo sapiens)          702
 3  CCNCc1cncc(NC(=O)c2c(N)ncn(-c3c(Cl)cc(C(=O)OC)cc3Cl)c2=O)c1 [Example 198]  GSK3B (Homo sapiens)          332
 4  Nc1ncn(-c2c(Cl)cc(OC(F)(F)F)cc2Cl)c(=O)c1C(=O)Nc1cncc([C@@H]2CCCN2)c1 [Example 109]  GSK3B (Homo sapiens)          803
 5  COc1cc(Cl)c(-n2cnc(N)c(C(=O)Nc3cncc([C@@H]4CCN4)c3)c2=O)c(Cl)c1 (single isomer, unassigned) [Example 213]  GSK3B (Homo sapiens)         1760
 6  CNC(C)c1cncc(NC(=O)c2c(N)ncn(-c3c(Cl)cc(OC)cc3Cl)c2=O)c1 (single isomer, unassigned) [Example 18]  GSK3B (Homo sapiens)          622
 7  CCC(N)c1cncc(NC(=O)c2c(N)ncn(-c3c(C)cc(C(F)(F)F)cc3C)c2=O)c1 (single isomer, unassigned) [Example 88]  GSK3B (Homo sapiens)         1020
 8  CCOc1cc(Cl)c(-n2cnc(N)c(C(=O)Nc3cncc(CNCCS(C)(=O)=O)c3)c2=O)c(Cl)c1 [Example 165]  GSK3B (Homo sapiens)          434
 9  CNC(C)c1cncc(NC(=O)c2c(N)ncn(-c3c(Cl)cc(Cl)cc3Cl)c2=O)c1 (single isomer, unassigned) [Example 12]  GSK3B (Homo sapiens)          199
10  Cc1cc(C)c(-n2cnc(N)c(C(=O)Nc3cncc(C4CCCCCN4)c3)c2=O)c(C)c1 (single isomer, unassigned) [Example 146]  GSK3B (Homo sapiens)          355
11  CCOc1cc(Cl)c(-n2cnc(N)c(C(=O)Nc3cncc(C4COCCCN4)c3)c2=O)c(Cl)c1 (single isomer, unassigned) [Example 135]  GSK3B (Homo sapiens)          184
12  COc1c(CN)cccc1NC(=O)c1c(N)ncn(-c2c(Cl)cccc2Cl)c1=O [Example 221, trifluoroacetate]  GSK3B (Homo sapiens)          400

----------
// reported pIC50 for each item listed
- Study system: human GSK3α (Homo sapiens, UniProt P49840)
- Construct: Full length human GSK3α or GSK3B expressed as N-terminal GST fusion proteins; GST (N); purchased Carna Biosciences (Japan); host or cells: baculovirus host
- Sequence (P49840 whole entry, the tested form may be a part): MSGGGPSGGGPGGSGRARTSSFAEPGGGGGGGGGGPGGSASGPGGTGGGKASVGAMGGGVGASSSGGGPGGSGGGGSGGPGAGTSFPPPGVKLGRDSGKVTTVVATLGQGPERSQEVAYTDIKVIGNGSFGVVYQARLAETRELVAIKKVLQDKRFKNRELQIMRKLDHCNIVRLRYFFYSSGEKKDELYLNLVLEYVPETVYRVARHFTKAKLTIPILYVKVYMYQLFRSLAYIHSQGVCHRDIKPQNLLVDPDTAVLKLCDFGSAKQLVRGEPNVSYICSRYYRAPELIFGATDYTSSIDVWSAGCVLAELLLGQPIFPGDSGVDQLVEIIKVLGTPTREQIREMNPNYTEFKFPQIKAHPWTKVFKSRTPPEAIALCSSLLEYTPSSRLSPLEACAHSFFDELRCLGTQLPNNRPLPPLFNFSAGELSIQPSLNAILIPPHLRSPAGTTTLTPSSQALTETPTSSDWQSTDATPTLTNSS
- Measurement description: In vitro enzymatic activity assay, GSK3α
- Type: biochemical
- Experimental parameters: 1.0 mM ATP, 1.0 μM peptide substrate, 120 min, 25° C, read-out: Enzyme GSK3α (IC50)
pIC50: −log10 of the molar value.
Endpoint: pIC50

In [3]: df
Out[3]:
                                   compound  endpoint  measurement
0  CCOCc1cc(C)c(-n2cnc(N)c(C(=O)Nc3cncc(C4CCCCCN4)c3)c2=O)c(C)c1 (single isomer, unassigned)     pIC50         8.26
1  Nc1ncn(-c2c(Cl)cc(C(F)(F)F)cc2Cl)c(=O)c1C(=O)Nc1cncc(CNCCO)c1     pIC50         8.30
2  COCc1cc(C)c(-n2cnc(N)c(C(=O)Nc3cncc([C@H]4CC[C@H](C)N4)c3)c2=O)c(C)c1 (single isomer, unassigned)     pIC50         7.88
3  CCc1cc(C)c(-n2cnc(N)c(C(=O)Nc3cncc(C4CCCCCN4)c3)c2=O)c(C)c1 (single isomer, unassigned)     pIC50         8.14
4  Nc1ncn(-c2c(Cl)cccc2Cl)c(=O)c1C(=O)Nc1cccc([C@@H]2CNC(=O)CN2)c1 (single isomer, unassigned) [Example 189]     pIC50         6.88
5  COc1cc(Cl)c(-n2cnc(N)c(C(=O)Nc3cncc(C4(N)CC4)c3)c2=O)c(Cl)c1     pIC50         8.10

----------
- Study system: UniProt:P49841
- Measurement description: In vitro enzymatic activity assay, GSK3β
- Assay type: biochemical
- Set-up: Full length human GSK3α or GSK3B expressed as N-terminal GST fusion proteins; GST (N); purchased Carna Biosciences (Japan); host or cells: baculovirus host
- Experimental parameters: 1.0 mM ATP, 1.0 μM peptide substrate, 120 min, 25° C, read-out: Enzyme GSK3β (IC50)
Structures can show the parent of a compound that is named as a salt.
Reported values of log10 IC50 for individual entries
Endpoint: log10 IC50 (log10 of the value in nM)

In [3]: df
Out[3]:
                                    compound    endpoint  measurement
 0  CCOC[C@@H](N)c1cncc(NC(=O)c2c(N)ncn(-c3c(C)cc(COC)cc3C)c2=O)c1 (single isomer, unassigned)  log10 IC50         2.30
 1  CCOc1cc(Cl)c(-n2cnc(N)c(C(=O)Nc3cncc(C(C)N)c3)c2=O)c(Cl)c1 (single isomer, unassigned) [Example 137]  log10 IC50         2.11
 2  CN[C@H](C)c1cc(F)cc(NC(=O)c2c(N)ncn(-c3c(Cl)cccc3Cl)c2=O)c1 [Example 6, trifluoroacetate]  log10 IC50         2.47
 3  COC[C@@H](N)c1cccc(NC(=O)c2c(N)ncn(-c3c(Cl)cccc3C(F)F)c2=O)c1 (atropisomer, axis not shown)  log10 IC50         2.53
 4  CCNCc1cncc(NC(=O)c2c(N)ncn(-c3c(Cl)cc(C(F)F)cc3Cl)c2=O)c1  log10 IC50         2.50
 5  COc1cc(Cl)c(-n2cnc(N)c(C(=O)Nc3cncc(C4(N)CCOCC4)c3)c2=O)c(Cl)c1  log10 IC50         2.96
 6  CCOc1cc(Cl)c(-n2cnc(N)c(C(=O)Nc3cncc(C(N)CC(F)F)c3)c2=O)c(Cl)c1 (single isomer, unassigned)  log10 IC50         2.32
 7  COCc1cc(C)c(-n2cnc(N)c(C(=O)Nc3cncc([C@H]4CCCCN4)c3)c2=O)c(C)c1  log10 IC50         2.40
 8  CCC(N)c1cncc(NC(=O)c2c(N)ncn(-c3c(C)cc(C(F)F)cc3C)c2=O)c1 (single isomer, unassigned)  log10 IC50         3.07
 9  C[C@H](N)c1cncc(NC(=O)c2c(N)ncn(-c3c(Cl)cc(C#N)cc3Cl)c2=O)c1 (single isomer, unassigned)  log10 IC50         2.45
10  Nc1ncn(-c2c(Cl)cccc2Cl)c(=O)c1C(=O)Nc1cccc([C@@H]2CNC(=O)CN2)c1 (single isomer, unassigned) [Example 190]  log10 IC50         2.99
11  NCc1cccc(NC(=O)c2c(N)ncn(-c3c(Cl)cccc3Cl)c2=O)c1C(F)(F)F  log10 IC50         3.11
12  CCNCc1cncc(NC(=O)c2c(N)ncn(-c3c(Cl)cc(OC(F)F)cc3Cl)c2=O)c1  log10 IC50         2.60
13  COc1cc(Cl)c(-n2cnc(N)c(C(=O)Nc3cncc(C4CCC(C)N4)c3)c2=O)c(Cl)c1 (single isomer, unassigned) [Example 79]  log10 IC50         2.50
14  CCNCc1cncc(NC(=O)c2c(N)ncn(-c3c(Cl)cc(-c4ncco4)cc3Cl)c2=O)c1  log10 IC50         2.78
15  CCOc1cc(Cl)c(-n2cnc(N)c(C(=O)Nc3cncc(C(N)C4CC4)c3)c2=O)c(Cl)c1 (single isomer, unassigned)  log10 IC50         2.75
16  Nc1ncn(-c2c(Cl)cc(OC(F)F)cc2Cl)c(=O)c1C(=O)Nc1cccc([C@@H]2CCCN2)c1  log10 IC50         2.68
17  CCOc1cc(Cl)c(-n2cnc(N)c(C(=O)Nc3cnnc(C(N)=O)c3)c2=O)c(Cl)c1  log10 IC50         2.51
18  CCNCc1cncc(NC(=O)c2c(N)ncn(-c3c(Cl)cccc3Cl)c2=O)c1  log10 IC50         2.58
19  CCNCc1cncc(NC(=O)c2c(N)ncn(-c3c(Cl)cc(CC(F)F)cc3Cl)c2=O)c1  log10 IC50         2.50
20  CN[C@@H](C)c1cncc(NC(=O)c2c(N)ncn(-c3c(Cl)cc(OC4CC4)cc3Cl)c2=O)c1 (single isomer, unassigned)  log10 IC50         2.80
21  CO[C@H](C)c1cc(C)c(-n2cnc(N)c(C(=O)Nc3cncc([C@@H](C)N)c3)c2=O)c(C)c1 (single isomer, unassigned) [Example 174]  log10 IC50         2.85
22  Nc1ncn(-c2c(Cl)cc(OC(F)F)cc2Cl)c(=O)c1C(=O)Nc1cncc([C@@H]2CCCCN2)c1  log10 IC50         2.69
23  COCc1cc(C)c(-n2cnc(N)c(C(=O)Nc3cncc(C4CCC(C)N4)c3)c2=O)c(C)c1 (single isomer, unassigned)  log10 IC50         2.97
24  COc1cc(Cl)c(-n2cnc(N)c(C(=O)Nc3cncc(C4CCCC(C)N4)c3)c2=O)c(Cl)c1 (single isomer, unassigned)  log10 IC50         2.69
25  CNCc1cncc(NC(=O)c2c(N)ncn(-c3c(Cl)cc(C(F)CF)cc3Cl)c2=O)c1 (single isomer, unassigned) [Example 117]  log10 IC50         2.02
26  Cc1cc(C#N)cc(Cl)c1-n1cnc(N)c(C(=O)Nc2cccc([C@@H]3CCCCN3)c2)c1=O (single isomer, unassigned)  log10 IC50         2.78
